Test system: S. cerevisiae tim23-1 mutant growth, luminescence
ASSAY NAME: tim23-1 yeast growth suppression potency – luminescence, uHTS hits, counter-screen for tim10-1 yeast inhibitor project, dose response (AID 504544)
Active and inactive are the calls of the source. The rule behind the calls is not given here.
Please reply with one of these outcomes: active, inactive

Outcome? O=C(NC(=S)NNC(=O)c1ccccc1[N+](=O)[O-])c1ccc(Br)cc1
active

Would you mind telling me which call this test gave NC(=NCCCCCCN=C(N)/N=C(\N)Nc1ccc(Cl)cc1)/N=C(\N)Nc1ccc(Cl)cc1 ?
inactive

Write down the call the test reported for this compound. Item: NNc1nc(-c2ccccc2)c2cc(Br)ccc2n1
active

Name the outcome recorded for S=C(NCCCc1ccccc1)Nc1ccc(Cl)cc1 in the assay.
active

Hey, what did the test say about O=C(/C=C\c1ccc(-c2ccccc2)o1)c1ccccc1 ?
active

For CCOC(=O)c1ccc(N=c2ssnc2Cl)cc1 , what call appears in the results of this test?
active

Identify the outcome logged in this assay for the compound shown: CC(C)Nc1nnc(Sc2ccc(Cl)cc2[N+](=O)[O-])s1
active

For CCOC(=O)/C=C/C(=O)OCC(=O)Nc1ccc([N+](=O)[O-])cc1 , what call appears in the results of this test?
active

Hi team, can someone confirm the assay call for Cc1ccc(/C(N)=N/OC(=O)c2ccc3c(c2)OCO3)cc1 ?
active

For CC[C@@H]1CC=C[C@H]2[C@H]1C(=O)N(Cc1ccccc1)[C@H]2c1ccoc1 , which call appears in the assay record?
active

Per the assay record, what outcome was assigned to O=C(NNC(=S)Nc1cccc(C(F)(F)F)c1)c1cccc(Cl)c1 ?
active

====

Would you kindly list IC50 for each of these compounds?
System: S. cerevisiae tim23-1 mutant growth, luminescence
ASSAY NAME: tim23-1 yeast growth suppression potency – luminescence, uHTS hits, counter-screen for tim10-1 yeast inhibitor project, dose response (AID 504544)

Dear colleague, I am looking for the recorded IC50 of the following compound: O=C1C2C3C=CC(CO)(O3)C2C(=O)N1c1ccccc1-c1ccccc1 (stereo not drawn)
1.83 µM

Can you share its IC50? I mean this compound: Cc1ccccc1OCC(=O)Nc1ccc(S(=O)(=O)N2CCCC2)cc1
7.95 µM

Given CCCOc1ccc(N2C(=O)CC(N3CCC(O)(c4cccc(C(F)(F)F)c4)CC3)C2=O)cc1 (stereo not drawn) , state its recorded IC50.
7.41 µM

# input compound: O=c1c2ccccc2nc(/C=C/c2ccc([N+](=O)[O-])o2)n1CCCO ; wanted: its IC50
5.81 µM

Value lookup for IC50; key = N/C(=N\OC(=O)c1ccc(F)cc1)c1ccc(Br)cc1
3.14 µM

Request the reported IC50 associated with COc1ccc(C(=O)O/N=C(\N)Cc2ccc(Cl)c(Cl)c2)cc1OC
1.38 µM

# lookup: IC50 of O=c1oc2ccccc2c(O)c1/C=C1\C=Nc2ccccc21
5.55 µM

If you can, please state the reported IC50 value of N/C(Cc1ccc(Cl)cc1)=N\OC(=O)c1ccc2ccccc2c1 .
0.38 µM

Quick one: IC50 for c1ccc(Nc2cccc(Nc3ccccc3)n2)cc1 ?
9.11 µM

Any idea what its IC50 is? The compound is CNC(=O)c1nnsc1S(=O)(=O)c1ccc(Cl)cc1
11.5 µM

// returns reported IC50 for input O=S(=O)(CCN(CCS(=O)(=O)C(F)(F)F)CC1CCCO1)C(F)(F)F (stereo not drawn)
11.2 µM

Which value of IC50 has been reported for N=C(N)c1ccc(/C=C/c2ccc(C(=N)N)cc2O)cc1 in the records?
6.44 µM

What does the record list as IC50 for CC(C)CN(CC(C)C)C(=S)Nc1ccc(Cl)cc1 ?
55.2 µM

Give its IC50 value. Item: Cc1cc([N+](=O)[O-])ccc1-c1ccc(C2Nc3ccccc3C(=O)N2O)o1 (stereo not drawn)
18.1 µM

Could you tell me which IC50 is on file for Nc1ccccc1C(=O)/C=C/c1ccc2c(c1)OCO2 ?
18.9 µM

Need IC50 of CCOC(=O)c1ccc(N2C(=O)C=CC2=O)cc1 , thanks.
0.48 µM

Given the compound Cc1cccc(NC(=O)c2ccc([N+](=O)[O-])s2)n1 , what is its reported IC50?
1.55 µM

Give the measured IC50 of CC(C)NC(=S)N/N=C1\CCCCc2ccccc21 .
10.9 µM

Consider the compound O=C(NNC(=S)Nc1cccc(C(F)(F)F)c1)c1ccc(Cl)cc1Cl and give its measured IC50.
7.04 µM

Tell me the measured IC50 of Clc1ccccc1OCc1nnc(-c2ccccc2Br)o1 , please.
32.9 µM

Fill in the blank: the reported IC50 of COc1ccc(-n2cc(-c3ccccc3)c3c(=S)nc[nH]c32)cc1 is ____.
38.4 µM

Using the record for N/C(=N\OC(=O)CCCc1ccccc1)c1ccccc1Cl , report its IC50.
14 µM

Form field: reported IC50 of Cc1ccc(NC2=C/C(=N\S(=O)(=O)c3cccs3)c3ccccc3C2=O)c(C)c1
11.9 µM

====

Tested on: S. cerevisiae tim23-1 mutant growth, luminescence
ASSAY NAME: tim23-1 yeast growth suppression potency – luminescence, uHTS hits, counter-screen for tim10-1 yeast inhibitor project, dose response (AID 504544)
Calls of active or inactive are those of the source. How the calls were made is not given here.
Please answer using one outcome listed in class 1 = active, class 0 = inactive

Query: recorded result category for N/C(=N\OC(=O)c1ccc(Cl)cc1)c1ccc(Cl)cc1 in this test
class 0

So what was the verdict on COc1ccc(-c2sc3cc4c(cc3c2C#CC2(N)CCCCC2)OCO4)cc1 in this test?
class 1

Hello, I am checking results. What call was entered for O=C1CS(=O)(=O)N(Cc2cccc(F)c2)c2ccc(Br)cc21 ?
class 1

// outcome(item) with item = CC(C)C(=O)N1CCN(c2ccccc2NC(=O)c2ccc([N+](=O)[O-])o2)CC1
class 1

Returns: the outcome recorded for N/C(Cc1ccc(Cl)cc1Cl)=N\OC(=O)Cc1ccc(Cl)cc1 in this assay.
class 1

Dear colleague, could you share the recorded outcome for CCOC(=O)c1c(OCC)[nH]c2c1cc(O)c1ccccc12 when you have a moment?
class 1

Could you check what this test reported for O=C(Nc1cccnc1)c1cn(-c2ccccc2)nc1-c1cccs1 ?
class 1

What was the test verdict on O=C(/C=C/c1ccc2c(c1)OCCCO2)c1ccccc1O ?
class 1

How did this test come out for Cn1c(/C=C/c2ccc([N+](=O)[O-])o2)nc2ccccc2c1=O ?
class 1

Just curious, what result did Cc1cccc(NC(=S)N/N=C2/CCCCc3ccccc32)c1 get here?
class 1

Would you mind telling me which call this test gave C[C@@H]1CC=C[C@H]2[C@H]1C(=O)N(Cc1ccccc1)[C@H]2c1ccc(-c2ccoc2)cc1F ?
class 1

Returns: the outcome recorded for CCCCCCC(=O)N(O)C1CC(=O)N(c2ccc(C)cc2)C1=O (configuration not stated) in this assay.
class 1

Query: recorded result category for COc1ccc(Cl)cc1NC(=O)CN(C)C(=O)C12CC3CC(CC(Cl)(C3)C1)C2 in this test
class 1

Recorded test outcome, item c1ccc(Nc2cccc(Nc3ccccc3)c2)cc1
class 1

What is the recorded call for this compound in the test? CCSc1nc2ccccc2n1C(=O)/C=C\c1ccc(OC)c(OC)c1
class 1

Just curious, what result did COc1ccc(C(=O)O/N=C(\N)c2ccc(Cl)cc2)cc1 get here?
class 1

Answer briefly: the call reported for COc1ccc(Br)cc1[C@H]1[C@H]2C=CC[C@@H](C)[C@@H]2C(=O)N1Cc1ccccc1 in this assay.
class 1

What outcome does the record of this test show for Cc1ccc(/C(N)=N/OC(=O)C(C)c2ccc([N+](=O)[O-])cc2)cc1 (configuration not stated) ?
class 1

# fetch the recorded call for CCN(CC)C1CC(=O)N(c2cccc(Cl)c2)C1=O (configuration not stated) here
class 1

How was C=CC(=O)Oc1ccc(N2Cc3ccccc3C2=O)cc1 classified in this test?
class 1

Which outcome was entered for the compound CCOC(=O)c1cc(-c2cccs2)nc2c1c(C)nn2-c1ccccn1 in this test?
class 1

For CCOC(=O)/C=C/C(=O)Nc1cccc([N+](=O)[O-])c1 , which call appears in the assay record?
class 1

====

System: S. cerevisiae tim23-1 mutant growth, luminescence
ASSAY NAME: tim23-1 yeast growth suppression potency – luminescence, uHTS hits, counter-screen for tim10-1 yeast inhibitor project, dose response (AID 504544)
MEASURED PARAMETER: IC50

Form field: reported IC50 of CCCOc1ccccc1NC(=O)/C=C/C(N)=O
2.34 µM

Look at this molecule and give its reported IC50. Fc1ccc(CNC(=S)Nc2cccc(C(F)(F)F)c2)cc1
12.3 µM

Report IC50 for O=C(c1ccc2c3n(nc2c1)-c1ccccc1CO3)N1CCCCC1 please.
9.67 µM

I am curious: what IC50 value has been reported for COc1ccc2sc(N(CCCN(C)C)C(=O)c3ccc(S(=O)(=O)N4CCCc5ccccc54)cc3)nc2c1 ?
11.9 µM

I have this molecule here, CN(CCCC(=O)O)c1ccc(N=Nc2ccc([N+](=O)[O-])cc2)cc1 , and I need its recorded IC50.
11.6 µM

Sample CCCCCCCCCCOC(=O)Cn1c(COc2ccccc2OC)[n+](C)c2ccccc21 — what was its IC50?
12 µM

Any idea what its IC50 is? The molecule is O=C1CC(Sc2nnnn2-c2ccccc2)C(=O)N1c1cccc(Cl)c1 (centres undefined)
2.92 µM

# IC50 lookup, item CN=C(Nc1cc(Cl)ccc1Cl)SC1CC(=O)N(c2ccc(C(=O)OC)cc2)C1=O (centres undefined)
15.4 µM

Quick one: IC50 of N#C/C(=N/Nc1ccc(OC(F)(F)F)cc1)C(N)=S ?
1.31 µM
